# test-target: LRRK2(G2019S mutation, GST-LRRK2(amino acids 970-2527)) (Homo sapiens, UniProt Q5S007, G2019S)
# Construct: GST-LRRK2(amino acids 970-2527); GST (N); purchased Life Technologies Corporation
# Sequence (Q5S007 970-2527 G2019S): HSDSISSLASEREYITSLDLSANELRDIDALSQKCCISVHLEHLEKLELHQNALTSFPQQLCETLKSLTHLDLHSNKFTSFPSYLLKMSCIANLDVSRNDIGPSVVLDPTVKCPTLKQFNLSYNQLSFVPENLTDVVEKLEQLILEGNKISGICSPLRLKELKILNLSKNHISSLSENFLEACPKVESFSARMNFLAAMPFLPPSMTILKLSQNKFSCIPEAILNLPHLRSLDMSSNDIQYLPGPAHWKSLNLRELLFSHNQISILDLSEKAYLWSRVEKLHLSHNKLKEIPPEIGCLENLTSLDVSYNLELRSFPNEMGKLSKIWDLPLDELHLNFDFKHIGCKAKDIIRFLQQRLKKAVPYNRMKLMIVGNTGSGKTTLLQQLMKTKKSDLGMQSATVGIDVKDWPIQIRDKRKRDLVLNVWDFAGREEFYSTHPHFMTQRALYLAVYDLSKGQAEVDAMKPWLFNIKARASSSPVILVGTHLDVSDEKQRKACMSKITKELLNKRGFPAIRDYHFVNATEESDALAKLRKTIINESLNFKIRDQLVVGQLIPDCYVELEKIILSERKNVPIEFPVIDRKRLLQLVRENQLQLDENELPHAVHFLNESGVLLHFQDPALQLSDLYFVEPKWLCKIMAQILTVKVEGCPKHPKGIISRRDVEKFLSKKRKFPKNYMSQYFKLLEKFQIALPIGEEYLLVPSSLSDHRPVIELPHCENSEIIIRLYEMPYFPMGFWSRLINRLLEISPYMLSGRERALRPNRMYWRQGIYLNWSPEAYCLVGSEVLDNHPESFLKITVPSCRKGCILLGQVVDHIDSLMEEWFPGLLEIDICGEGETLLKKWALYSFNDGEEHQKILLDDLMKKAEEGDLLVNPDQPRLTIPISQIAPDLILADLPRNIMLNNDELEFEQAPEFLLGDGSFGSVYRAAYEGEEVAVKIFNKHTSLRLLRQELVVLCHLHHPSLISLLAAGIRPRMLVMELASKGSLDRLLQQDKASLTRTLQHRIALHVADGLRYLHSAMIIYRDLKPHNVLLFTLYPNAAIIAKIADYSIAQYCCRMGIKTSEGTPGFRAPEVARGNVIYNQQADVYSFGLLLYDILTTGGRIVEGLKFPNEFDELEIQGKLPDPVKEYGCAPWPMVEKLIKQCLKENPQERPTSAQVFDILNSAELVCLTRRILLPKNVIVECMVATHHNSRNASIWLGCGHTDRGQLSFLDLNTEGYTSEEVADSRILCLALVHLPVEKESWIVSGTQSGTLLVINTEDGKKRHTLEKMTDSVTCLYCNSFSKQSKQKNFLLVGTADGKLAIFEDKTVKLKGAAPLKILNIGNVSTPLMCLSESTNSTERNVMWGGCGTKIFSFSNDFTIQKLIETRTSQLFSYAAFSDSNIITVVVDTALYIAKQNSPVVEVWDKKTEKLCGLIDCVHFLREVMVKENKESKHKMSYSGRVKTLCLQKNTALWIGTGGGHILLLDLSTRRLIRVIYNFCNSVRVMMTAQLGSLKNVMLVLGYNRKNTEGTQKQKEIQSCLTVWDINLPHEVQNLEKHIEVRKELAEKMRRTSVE
# assay-overview: LRRK2 Km ATP LanthaScreen Assay
# Format: biochemical
# protocol-conditions: Km ATP LanthaScreen; mean IC50 of several tests; read-out: LRRK2 IC50
pIC50: −log10 of the molar value.
Please enter 1 where pIC50 is greater than or equal to 8, and -1 where it is lower.

molecule: CCN(c1cccc(C)c1)c1ccc2[nH]nc(-c3ccnc(N4CCOCC4)c3)c2c1 [Example 115]
class-label: -1

molecule: CC(C)Oc1ccc2[nH]nc(-c3ccnc(N4CCN(C(=O)C5CC5)C(C)C4)c3)c2c1 (stereo not drawn) [Example 386]
class-label: 1

molecule: Cn1nccc1-c1ccc2[nH]nc(-c3ccnc(N4CCOCC4)c3)c2c1 [Example 345]
class-label: -1

molecule: Oc1ccncc1-c1ccc2[nH]nc(-c3ccnc(N4CCOCC4)c3)c2c1 [Example 118]
class-label: -1

molecule: Cn1cc(-c2ccc3[nH]nc(-c4ccnc(N5CCc6oc(C7CC7)nc6C5)c4)c3c2)cn1 [Example 272]
class-label: 1

molecule: CC(C)Oc1ccc2[nH]nc(-c3ccnc(N4CCN(S(C)(=O)=O)CC4)c3)c2c1 [Example 289]
class-label: 1

molecule: CCOc1ccc2[nH]nc(-c3ccnc(N[C@H](C)CO)c3)c2c1 [Example 357]
class-label: 1

molecule: Cn1cc(-c2ccc3[nH]nc(-c4ccnc(N5CC(F)C5)c4)c3c2)cn1 [Ex 376]
class-label: 1

molecule: Fc1cc2[nH]nc(-c3ccnc(N4CCOCC4)c3)c2cc1-c1ccn[nH]1 [Example 351]
class-label: 1

molecule: CCC(C)Oc1ccc2[nH]nc(-c3ccnc(N4CCOCC4)c3)c2c1 (stereo not drawn) [Example 291]
class-label: 1

molecule: Brc1ccc2c(-c3ccnc(N4CCOCC4)c3)n[nH]c2c1 [Example 103]
class-label: -1

molecule: Oc1ccc2[nH]nc(-c3ccnc(N4C5CCC4COC5)c3)c2c1 [Example 398]
class-label: -1

molecule: Oc1ccc2[nH]nc(-c3ccnc(N4CCOCC4)c3)c2c1 [Example 78]
class-label: 1

molecule: COCCOc1ccc2[nH]nc(-c3ccnc(N4CCN(C)C(=O)C4)c3)c2c1 [Example 368]
class-label: -1

molecule: Cc1ccnc(-c2ccc3[nH]nc(-c4ccnc(N5CCOCC5)c4)c3c2)n1 [Example 336]
class-label: -1

molecule: CCOc1ccc2[nH]nc(-c3ccnc(N4CCC(F)(F)CC4)c3)c2c1 [Example 288]
class-label: -1

molecule: Cn1cc(-c2ccc3[nH]nc(-c4ccnc(N5CCN(S(C)(=O)=O)CC5)c4)c3c2)cn1 [Example 381]
class-label: 1

molecule: CC(C)Oc1ccc2[nH]nc(-c3ccnc(N4CC5CCC(C4)O5)c3)c2c1 [Example 280]
class-label: 1

molecule: CO[C@H]1CN(c2cc(-c3n[nH]c4ccc(-c5cnn(C)c5)cc34)ccn2)C[C@@H]1O [Example 269]
class-label: 1

molecule: Fc1ccc2[nH]nc(-c3ccnc(N4CCOCC4)c3)c2c1 [Example 391]
class-label: -1

molecule: Cn1cc(-c2ccc3[nH]nc(-c4ccnc(N5CCOCC5)c4)c3c2)nn1 [Example 340]
class-label: 1

molecule: COc1cccc(F)c1-c1ccc2[nH]nc(-c3ccnc(N4CCOCC4)c3)c2c1 [Example 314]
class-label: 1

molecule: c1cc(-c2n[nH]c3ccc(OCC4CC4)cc23)cc(N2CCOCC2)n1 [Example 373]
class-label: -1

Values from patent US9440952B2
